Reference for the values: paper PMC3388857

Tested on: influenza A H3N2 virus
Assay: Antiviral activity in influenza A virus-infected MDCK cells (prevention of virus-induced cytopathicity, CellTiter-Glo, 48 h)
Format: cell-based, influenza A virus A/Aichi/2/68 (H3N2)
Conditions: Influenza A virus, H3N2, MDCK, 48 h, MDCK cells infected with influenza A H3N2, MOI 0.05, compound added with virus, 48 h; read-out: IC50 (half-maximal inhibitory concentration, antiviral activity)
endpoint label: IC50 (µM)
Express your answer in µM, writing the number without its unit.

Case CC1(C)C(SCCS[C@@H]2O[C@H](C(=O)O)[C@@H](O)[C@H](O)[C@H]2O)C=C[C@@]2(C)C1CC[C@]1(C)C2C(=O)C=C2[C@@H]3C[C@@](C)(C(=O)O)CC[C@]3(C)CC[C@]21C (some centres unmarked) [Compound 23] , influenza A H3N2 virus, IC50 recorded as 54

Case CC1(C)[C@@H](O[C@H]2O[C@H](C(=O)O)[C@@H](O)[C@H](O)[C@H]2O[C@@H]2O[C@H](C(=O)O)[C@@H](O)[C@H](O)[C@H]2O)CC[C@]2(C)[C@H]3C(=O)C=C4[C@@H]5C[C@@](C)(C(=O)O)CC[C@]5(C)CC[C@@]4(C)[C@]3(C)CC[C@@H]12 [GL, glycyrrhizin] , influenza A H3N2 virus, IC50 recorded as 1030

Case CC(=O)N(CCS[C@@H]1O[C@H](C(=O)O)[C@@H](O)[C@H](O)[C@H]1O)[C@H]1CC[C@@]2(C)C(CC[C@]3(C)C2C(=O)C=C2[C@@H]4C[C@@](C)(C(=O)O)CC[C@]4(C)CC[C@]23C)C1(C)C (some centres unmarked) [Compound 15] , influenza A H3N2 virus, IC50 recorded as 87

====

Exercise: state measured IC50 for each of the compounds provided.
System: influenza A H3N2 virus
Assay: Antiviral activity in influenza A virus-infected MDCK cells (prevention of virus-induced cytopathicity, CellTiter-Glo, 48 h)
Assay type: cell-based, influenza A virus A/Aichi/2/68 (H3N2)
Details: Influenza A virus, H3N2, MDCK, 48 h, MDCK cells infected with influenza A H3N2, MOI 0.05, compound added with virus, 48 h; read-out: IC50 (half-maximal inhibitory concentration, antiviral activity)
Experimental: For biological testing the compounds were dissolved in DMSO and diluted in cell culture medium to a maximum final DMSO concentration of 1%. For determination of the cytotoxicity of the compounds, MDCK cells were treated with compound concentrations ranging from 3.1 µM to 250 µM for 48 h and then cell viability was determined as a surrogate endpoint for cytotoxicity. […] GL was not toxic at 2500 µM (Table 1). […]
Express your answer in µM, writing the number without its unit.

IC50 reported for this compound COC(=O)[C@H]1O[C@@H](SCCN[C@H]2CC[C@@]3(C)C(CC[C@]4(C)C3C(=O)C=C3[C@@H]5C[C@@](C)(C(=O)O)CC[C@]5(C)CC[C@]34C)C2(C)C)[C@H](O)[C@@H](O)[C@@H]1O (stereo partly shown) : 220

IC50 reported for this compound COC(=O)CCC(=O)N(CCS[C@@H]1O[C@H](C(=O)OC)[C@@H](O)[C@H](O)[C@H]1O)[C@H]1CC[C@@]2(C)C(CC[C@]3(C)C2C(=O)C=C2[C@@H]4C[C@@](C)(C(=O)O)CC[C@]4(C)CC[C@]23C)C1(C)C (stereo partly shown) : 125

IC50 reported for this compound COC(=O)[C@H]1O[C@@H](SCCN(C(C)=O)[C@H]2CC[C@@]3(C)C(CC[C@]4(C)C3C(=O)C=C3[C@@H]5C[C@@](C)(C(=O)O)CC[C@]5(C)CC[C@]34C)C2(C)C)[C@H](O)[C@@H](O)[C@@H]1O (stereo partly shown) : 72.1
